test-description: Clearance in mouse at 1 mg/kg, iv
Type: ADME, organism-based
run-parameters: in vivo
readout-name: clearance (L/h/kg)
Give the number; L/h/kg is assumed, so skip it.

Value of clearance reported for the molecule C=C(C)[C@@H]1CC[C@]2(NCCN3CCS(=O)(=O)CC3)CC[C@]3(C)[C@H](CC[C@@H]4[C@@]5(C)CC=C(C6=CC[C@](COc7ncccc7C#N)(C(=O)O)CC6)C(C)(C)[C@@H]5CC[C@]43C)[C@@H]12 is 0.0378

###

test-description: Metabolic stability in Cynomolgus monkey liver microsomes assessed as half life
Type: ADME, Macaca fascicularis, Microsome
readout-name: half-life (min)
Give the number; min is assumed, so skip it.

Value of half-life reported for the compound C=C(C)[C@@H]1CC[C@]2(NCCN3CCS(=O)(=O)CC3)CC[C@]3(C)[C@H](CC[C@@H]4[C@@]5(C)CC=C(C6=CC[C@](COc7ncccc7C#N)(C(=O)O)CC6)C(C)(C)[C@@H]5CC[C@]43C)[C@@H]12 is 12

###

test-description: Oral bioavailability in mouse at 5 mg/kg
Format: ADME, organism-based
run-parameters: in vivo
readout-name: bioavailability (%)
Give the number; % is assumed, so skip it.

Value of bioavailability reported for the molecule C=C(C)[C@@H]1CC[C@]2(NCCN3CCS(=O)(=O)CC3)CC[C@]3(C)[C@H](CC[C@@H]4[C@@]5(C)CC=C(C6=CC[C@](COc7ncccc7C#N)(C(=O)O)CC6)C(C)(C)[C@@H]5CC[C@]43C)[C@@H]12 is 46

###

test-description: Oral bioavailability in dog at 5 mg/kg
Assay type: ADME, organism-based, Canis lupus familiaris
run-parameters: in vivo
readout-name: bioavailability (%)
Give the number; % is assumed, so skip it.

Value of bioavailability reported for the molecule C=C(C)[C@@H]1CC[C@]2(NCCN3CCS(=O)(=O)CC3)CC[C@]3(C)[C@H](CC[C@@H]4[C@@]5(C)CC=C(C6=CC[C@](COc7ncccc7C#N)(C(=O)O)CC6)C(C)(C)[C@@H]5CC[C@]43C)[C@@H]12 is 59

###

test-description: AUC (infinity) in Cynomolgus monkey at 2 mg/kg, iv
Format: ADME, organism-based, Macaca fascicularis
run-parameters: in vivo
readout-name: AUC(0-inf) (µM·h)
Give the number; µM·h is assumed, so skip it.

Value of AUC(0-inf) reported for the compound C=C(C)[C@@H]1CC[C@]2(NCCN3CCS(=O)(=O)CC3)CC[C@]3(C)[C@H](CC[C@@H]4[C@@]5(C)CC=C(C6=CC[C@](COc7ncccc7C#N)(C(=O)O)CC6)C(C)(C)[C@@H]5CC[C@]43C)[C@@H]12 is 65.5

###

test-description: Clearance in rat at 1 mg/kg, iv
Assay type: ADME, organism-based
run-parameters: in vivo
readout-name: clearance (mL/min/kg)
Give the number; mL/min/kg is assumed, so skip it.

Value of clearance reported for the compound C=C(C)[C@@H]1CC[C@]2(NCCN3CCS(=O)(=O)CC3)CC[C@]3(C)[C@H](CC[C@@H]4[C@@]5(C)CC=C(C6=CC[C@](COc7ncccc7C#N)(C(=O)O)CC6)C(C)(C)[C@@H]5CC[C@]43C)[C@@H]12 is 1.23

###

test-description: Elimination half life in dog at 5 mg/kg, po
Format: ADME, organism-based, Canis lupus familiaris
run-parameters: in vivo, read-out: beta t1/2 (converted)
readout-name: half-life (h)
Give the number; h is assumed, so skip it.

Value of half-life reported for the molecule C=C(C)[C@@H]1CC[C@]2(NCCN3CCS(=O)(=O)CC3)CC[C@]3(C)[C@H](CC[C@@H]4[C@@]5(C)CC=C(C6=CC[C@](COc7ncccc7C#N)(C(=O)O)CC6)C(C)(C)[C@@H]5CC[C@]43C)[C@@H]12 is 26.9
